Entry source: the supplement of paper PMC10567573

So I've got a bunch of variants here, and I need their protein stability index values.
B1: EHMT1 (parent)
chain: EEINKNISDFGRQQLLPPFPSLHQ

Variants of: B1
Test: protein stability index of a GFP-peptide fusion (GPS, HEK-293T) (PSI 1-6); higher = more stable;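 note: lentivirally expressed fusions sorted by FACS into six bins by GFP to DsRed ratio, PSI derived from sequencing read proportions per bin multiplied by bin number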
Details: c terminus: a fixed tail appended
Numbers only.

Example entries begin here.
# variant "R12K" ; its protein stability index = 3.06

# variant "L16T" ; its protein stability index = 3.5

# variant "R12Y" ; its protein stability index = 2.86

Give protein stability index for each of the items listed below.
1. L22A
2. S8F
3. L16K
4. Q24I
5. D9E
6. E2K
7. I7P

a:
3.73
2.64
3.05
2.17
2.5
2.64
2.38
